- measurement setup: acidic group
Consider the following compounds; for each one, report its pKa.
// keep it numeric: no unit symbol after the value

Any idea what its pKa is? The compound is N#CC(Br)C#N
5

Any idea what its pKa is? The compound is O=C([O-])/C(=N/O)c1ccccc1
11.6

Any idea what its pKa is? The compound is CC1(C)C(=O)NC(=O)C1(C)C
9.7

Any idea what its pKa is? The compound is [S-]c1ncnc2nc[nH]c12
10.9

Any idea what its pKa is? The compound is Cc1nc(NS(=O)(=O)c2ccc(N)cc2)sc1C
6.97

Any idea what its pKa is? The compound is CCCCCCCC(=O)N[C@H]1C(=O)N2[C@H]1SC(C)(C)[C@H]2C(=O)O
2.66

Any idea what its pKa is? The compound is O=C(O)CCc1ccc(Cl)cc1
4.65

Any idea what its pKa is? The compound is Cc1cccc(C(C)[N+](=O)[O-])c1 (centres undefined)
7.49

Any idea what its pKa is? The compound is Cc1ccc(O)c(C(=O)[O-])c1
14

Any idea what its pKa is? The compound is OC(c1ccncc1)n1cc[nH+]c1 (centres undefined)
7.24

Any idea what its pKa is? The compound is Cc1ccc(S(=O)(=O)NCCC(=O)[O-])cc1
11.2

Any idea what its pKa is? The compound is Cc1cc([N+](=O)[O-])cc2c1nnn2O
3.43

Any idea what its pKa is? The compound is Oc1ccc2cc(Br)ccc2c1
9.2

Any idea what its pKa is? The compound is NC(=O)C(CCC(=O)O)c1ccccc1 (centres undefined)
4.64

* * *

- measurement setup: basic group
attribute measured: pKa
// keep it numeric: no unit symbol after the value

Any idea what its pKa is? The molecule is CC[C@]12CCC[NH+]3CC[C@@]4(c5cccc(OC)c5N[C@H]4CC1)[C@@H]32
2.7

Any idea what its pKa is? The molecule is [NH3+]CCc1cccnc1
4.64

Any idea what its pKa is? The molecule is CN(C)CCC/N=C(\c1ccccc1)c1ccccc1O
9.3

Any idea what its pKa is? The molecule is Cn1ncc2c(NCCO)ncnc21
3.86

Any idea what its pKa is? The molecule is N#CCN
5.37

Any idea what its pKa is? The molecule is CCN(CC)CCCC(C)Nc1cc(C)nc2cc(Cl)ccc12 (configuration not stated)
10.2

Any idea what its pKa is? The molecule is COc1cc(S(C)=O)ccc1-c1nc2[nH]ncc2[nH]1 (configuration not stated)
3.8

Any idea what its pKa is? The molecule is C[C@@H]1CCN2CC[C@H](O)[C@H]12
10.9

Any idea what its pKa is? The molecule is CCOc1ccc2nc3c(c(N4CCOCC4)c2c1)CCC3
7.11

Any idea what its pKa is? The molecule is CC(=O)Nc1cccnc1
4.44

Any idea what its pKa is? The molecule is CCS(=O)(=O)c1cc(OC)c(OC)c(C(=O)N[C@@H]2C[C@H]3CC[C@@H](C2)N3Cc2ccccc2)c1
8.9

Any idea what its pKa is? The molecule is [O-]c1ccccc1CN1CCCCC1
11

Any idea what its pKa is? The molecule is C[NH+](C)CCCN
6.74

Any idea what its pKa is? The molecule is Cn1ccnc1
7.15

Any idea what its pKa is? The molecule is Cc1ccc(C)c(C(=N)c2ccccc2)c1
6.79

Any idea what its pKa is? The molecule is CN(C)c1ccc([NH+](C)C)cc1
2.5

Any idea what its pKa is? The molecule is Nc1ccc(Cl)cc1
3.96

Any idea what its pKa is? The molecule is CN(CCO)c1ccccc1
4.89

Any idea what its pKa is? The molecule is c1ccc2c(c1)nnc1ccccc12
2.2

Any idea what its pKa is? The molecule is C=CC(C)Nc1ccccc1 (configuration not stated)
4.57

Any idea what its pKa is? The molecule is N#CC(C#N)=NNc1ccc(/N=N/c2ccccc2)cc1
-0.87

Any idea what its pKa is? The molecule is CN(C)c1ccc(/C=C/c2cc(N)c3ccccc3n2)cc1
9.7

Any idea what its pKa is? The molecule is CCCCCCCCCCN(CC(O)CC)CC(O)CC (configuration not stated)
6.6

Any idea what its pKa is? The molecule is CCOCCn1c(CN2CC[NH+](CCCCn3cc(C(=O)O)cn3)CC2)nc2ccccc21
4.9

Any idea what its pKa is? The molecule is c1ccnnc1
2.33

Any idea what its pKa is? The molecule is COc1ncc2ccccc2n1
1.31

Any idea what its pKa is? The molecule is CCCCCCCCCCCCCNCCCCCCCCCCCCC
11

Any idea what its pKa is? The molecule is NC1=[NH+][C@H]2C[C@@H](N1)N[C@@H]2C(=O)[O-]
5.5

Any idea what its pKa is? The molecule is Cc1cnc2c(cc(C)c3cccnc32)c1C
5.93

Any idea what its pKa is? The molecule is C=Cc1c(C)c2cc3[nH+]c(c(CC(=O)OC)c4[nH]c(cc5nc(cc1[nH]2)C(C)=C5CC)c(C)c4C(=O)NCC)[C@@H](CCC(=O)OC)[C@@H]3C
0

Any idea what its pKa is? The molecule is Nc1cncnc1
2.83

Any idea what its pKa is? The molecule is c1ccc(CSc2nc(SCc3ccccc3)c(-c3ccccc3)[nH]2)cc1
2.7

Any idea what its pKa is? The molecule is COc1cccnc1C=O
3.89

Any idea what its pKa is? The molecule is Cc1nc2cccc([N+](=O)[O-])c2c(NCCC[NH+](C)C)c1C
6.64

Any idea what its pKa is? The molecule is CC1(C)CC(=O)C(C)(C)N1
7.1

Any idea what its pKa is? The molecule is O=[N+]([O-])c1cccc2cnccc12
3.46

Any idea what its pKa is? The molecule is CSc1ccc(N)c(Cl)c1
2.56

Any idea what its pKa is? The molecule is COc1ccc(C[NH3+])cc1N
4.16

Any idea what its pKa is? The molecule is N#CCc1cccnc1
3.78

Any idea what its pKa is? The molecule is OC[C@H]1CCCN2CCCC[C@@H]12
10.2

Any idea what its pKa is? The molecule is c1ccc(-c2cc(-c3ccccc3)c(NCC[NH+]3CCOCC3)nn2)cc1
3.36

Any idea what its pKa is? The molecule is O=P([O-])([O-])c1cn2c(n1)[C@@H](O)[C@H](O)[C@@H](O)[C@@H]2CO
7.69

Any idea what its pKa is? The molecule is Cn1ccnc1N=[N+]=[N-]
4.05

Any idea what its pKa is? The molecule is C=C(C)[C@H]1CN[C@H](C(=O)[O-])[C@H]1CC(N)=O
9.47

Any idea what its pKa is? The molecule is O/N=C1C=C/C(=N\O)c2cccnc2/1
3.7

Any idea what its pKa is? The molecule is O=C([O-])c1nc2cc(Cl)ccc2[nH]1
4.3

Any idea what its pKa is? The molecule is Nc1cccc2cccc([N+](=O)[O-])c12
2.79

Any idea what its pKa is? The molecule is [S-]c1cccc2cccnc12
8.29

Any idea what its pKa is? The molecule is CC(=O)c1ccncc1
3.6

Any idea what its pKa is? The molecule is CCCNC1c2ccccc2C=Cc2ccccc21
8.9

Any idea what its pKa is? The molecule is Cn1c(-c2ccccc2[O-])nc2ccccc21
8.92

Any idea what its pKa is? The molecule is COC(=O)c1ccncc1
3.38

Any idea what its pKa is? The molecule is C1CCc2c(nnc3c2CCCC3)C1
6.12

Any idea what its pKa is? The molecule is CCNc1nc(Cl)nc(NC(C)C)n1
1.61

Any idea what its pKa is? The molecule is COc1c(Br)cccc1C(=O)N[C@@H]1C[C@H]2CC[C@@H](C1)N2Cc1ccccc1
8.73

Any idea what its pKa is? The molecule is Nc1ccc2[nH]c(CCc3ccccc3)nc2c1
7.2

Any idea what its pKa is? The molecule is CC(=O)Nc1ccccn1
4.09

All figures here come from the pKa sets of Baltruschat and Czodrowski (2020).
